Target: T1, TREM2 (Homo sapiens, UniProt Q9NZC2)
T1 construct: macrophage cells that endogenously express TREM2; endogenous in cells; host or cells: primary human monocyte-derived macrophages from donor blood
T1 sequence (Q9NZC2 19-230): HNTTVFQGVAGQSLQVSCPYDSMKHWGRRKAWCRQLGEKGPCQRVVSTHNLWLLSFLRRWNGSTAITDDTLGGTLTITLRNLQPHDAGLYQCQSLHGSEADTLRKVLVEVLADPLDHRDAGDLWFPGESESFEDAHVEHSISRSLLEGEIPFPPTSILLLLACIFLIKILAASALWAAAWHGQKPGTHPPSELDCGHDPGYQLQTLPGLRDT
Test: TREM2 pSyk antagonist assay on human macrophages (antibody pre-incubation, then liposomes)
Format: cell-based
Details: FIGS. 9C-9D, 30 nM antibody
Description: Human macrophages were differentiated from donor blood using a human monocyte enrichment cocktail (Stem Cell Technologies) and culturing monocytes with human mCSF for five days in macrophage media (RPMI+10% Hyclone FBS+Glutamax+Pen/Strep+non-essential amino acids+sodium pyruvate). On the fifth day, the human macrophages were scraped from the flasks and were re-plated at 100,000 cells/well on a 96-well poly-D-lysine-coated plate in the macrophage media (without mCSF). […]
observable: liposome mediated pSyk signaling after antibody pre-incubation

molecule	reportedResult
26E2.A3: anti-TREM2 antibody clone; VH SEQ ID NO:17, VL SEQ ID NO:28 (antibody, V domains shown) VH: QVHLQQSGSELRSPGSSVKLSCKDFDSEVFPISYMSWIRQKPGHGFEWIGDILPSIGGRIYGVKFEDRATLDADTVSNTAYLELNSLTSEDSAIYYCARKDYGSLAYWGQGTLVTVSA VL: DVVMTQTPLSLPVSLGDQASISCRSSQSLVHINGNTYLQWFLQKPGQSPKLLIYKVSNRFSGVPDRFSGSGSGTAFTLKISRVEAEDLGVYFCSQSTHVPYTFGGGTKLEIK	enhanced
54C2.A1: anti-TREM2 antibody clone; VH SEQ ID NO:22, VL SEQ ID NO:33 (antibody, V domains shown) VH: QVHLQQSGSELRSPGSSVKLSCKDFDSEVFPIAYMSWVRQKPGHGFEWIGDILPSIGRRIYGVKFEDKATLDADTVSNTAYLELNSLTSEDSAIYYCTRKDYGSLAYWGQGTLVTVSA VL: DVVMTQTPLSLPVSLGDQASISCRSSQSLVHINGNTYLQWYLQKPGQSPKLLIYKVSNRFSGVPDRFSGSGSGTDFTLRISRVEAEDLGVYFCSQSTHLPYTFGGGTKLEIK	enhanced

The measured values listed here are drawn from patent US20200277373A1.
